- System: DG-75 Burkitt’s lymphoma cell line
- testName: alamarBlue cell viability assay
- assaySetup: Homo sapiens, DG-75, 48 h, read-out: % Viable Cells Remaining DG-75, 10 µM, 48 h
Each entry below lists one item and its recorded viability at 10 µM value.

INSERT INTO results (compound, obsvalue) VALUES
  ('O=[N+]([O-])/C=C/c1c2ccccc2c(-c2ccccc2)c2ccccc12 [Compound 19j, (E)-9-(2-Nitrovinyl)-10-Phenylanthracene]', '1.5%'),
  ('c1ccc2c(CN3CCCCCC3)c3ccccc3cc2c1 [Compound 29a]', '89.3%');

Q: Returns the measured viability at 10 µM for the input compound. Input: c1ccc2c(C3CNN=N3)c3ccccc3cc2c1 (centres unmarked)
A: > 90%

Q: Next up: O=C(c1c2ccccc2cc2ccccc12)N1CCCC1 [Compound 33d]
A: 67.1%

Q: Next up: Cc1c2ccccc2c(/C=C/[N+](=O)[O-])c2ccccc12 [Compound 19i, (E)-9-Methyl-10-(2-Nitrovinyl)Anthracene]
A: 19.5%

Q: Next up: Cc1[nH]nnc1-c1c2ccccc2cc2ccccc12 [Compound 30b]
A: > 90%

Q: Next up: OCc1c2ccccc2cc2ccccc12
A: 93%

Q: Next up: C/C(=C\c1c2ccccc2c(Cl)c2ccccc12)[N+](=O)[O-] [Compound 19e]
A: 99.6%
